# Test system: ACHN renal
# assayName: NCI tumour cell line growth inhibition, 48 h
measuredAttribute: TGI

Examples with answers:
• Nc1ncnc2oc(C3OC(COC(=O)c4ccccc4)C(OC(=O)c4ccccc4)C3OC(=O)c3ccccc3)nc12 (stereo unspecified) = > 100 µM
• CCCCCCCCCCCCC(Br)C(=O)NCC(N)=O (stereo unspecified) = 29.2 µM
• CCOC(=O)C(C(=O)OCC)=C1NC2(c3ccccc3Nc3ccccc32)C(C#N)S1 (stereo unspecified) = 52.8 µM
• O=[N+]([O-])c1ccc(OC2CC3C4C=CC3C2C4)c([N+](=O)[O-])c1 (stereo unspecified) = > 100 µM

Parameters: items (list). Returns: TGI for each item.
1. ClCCN(CCCl)c1ccc(/C=N/Nc2ccnc3ccccc23)cc1
2. O=[N+]([O-])c1ccc(N2CCOCC2)c2c1no[n+]2[O-]
3. NNC(=O)c1c(-c2cccnc2)cnc2ccccc12
4. COc1ccc(/C=C(\C#N)n2nnc3c(F)cccc32)cc1
5. O=C1C(Cl)C2(CC(/C=C/c3ccccc3)=NN2c2cccc(S(=O)(=O)O)c2)N1c1nc2ccccc2s1 (stereo unspecified)

1: 3.37 µM; 2: 3.15 µM; 3: > 100 µM; 4: > 51.6 µM; 5: 30.9 µM

Please state, for each entry, its recorded TGI.
1. c1ccc2cc(-c3n(Cc4ccc5ccccc5n4)c4ccccc4[n+]3Cc3ccc4ccccc4n3)ccc2c1
2. CCOC(=O)C1(F)S(=O)(=O)OCCOS1(=O)=O
3. C#CCNC(=O)[C@H](CC)[C@H]1CC[C@H](C)[C@H]([C@@H](C)[C@H](O)[C@H](C)C(=O)[C@H](CC)C2O[C@]3(C=CC(=O)[C@]4(CC[C@@](C)([C@H]5CC[C@](O)(CC)[C@H](C)O5)O4)O3)[C@H](C)C[C@@H]2C)O1 (stereo partly specified)
4. C/C=C/C#CC#C/C=C/C=C/C(O)CCO (stereo unspecified)
5. COc1ccc(N(CC(=O)NCCC[Te]c2ccccc2)C(=O)CNC(=O)OC(C)(C)C)cc1

1.95 µM
> 100 µM
14.6 µM
> 23.1 µM
8.86 µM

Would you mind listing TGI for each of the following molecules?
1. c1ccc(-c2nc(N3CCNCC3)c3oc(-c4ccccc4)nc3n2)cc1
2. Cc1ccc2nc(N/N=C/c3sccc3C)cc(C)c2c1
3. CC1=C(CC(=O)c2cccc([N+](=O)[O-])c2)C(=O)c2ccccc2C1=O

1. 3 µM
2. > 100 µM
3. 11.9 µM

Provide TGI for all items below, preserving their order.
1. N[C@H](C(=O)O)[C@@H]1CC(Br)=NO1
2. N#CCCN1C/C(=C/c2ccc(Cl)cc2)C(=O)/C(=C/c2ccc(Cl)cc2)C1
3. COc1ccc(Oc2cccc(C3C4C(=O)N(c5ccc(C)c(Cl)c5)C(=O)C4ON3C(C(N)=O)c3ccccc3)c2)cc1 (stereo unspecified)
4. COc1ccc(N2C(=O)/C(=C\c3cc(OC)c(OC)c(OC)c3)SC2c2ccccc2)cc1 (stereo unspecified)
5. CC(N)Cc1ccc(Cl)c(Cl)c1 (stereo unspecified)
6. O=C(O)/C=C/c1nc2ccccc2c(=O)o1
7. COc1ccc(-c2cc(C(=O)Nc3ccc(C)c(C)c3)nc(NC#N)n2)cc1

1: > 100 µM; 2: 3.28 µM; 3: > 50 µM; 4: > 100 µM; 5: > 84.6 µM; 6: > 100 µM; 7: > 100 µM

Batch: TGI for all items listed.
1. O=C(O)Cc1cccnc1
2. CCc1cccc(C)c1NC(=O)c1sc2nc3c(cc2c1N)C(=O)CCC3
3. CC1(C)OC(=S)N(c2ccccc2)C12C=Cc1ccccc1O2 (stereo unspecified)

["> 100 µM", "> 100 µM", "> 100 µM"]

Please give TGI for each item listed below.
1. Cc1ccc(-c2nc(N/N=C/C=C/c3ccccc3)c3ccccc3n2)cc1
2. O=C(/C=C/c1ccc(Oc2cc(C(=O)/C=C/c3ccc(O)cc3)c(O)cc2O)cc1)c1ccc(O)cc1O
3. COc1cc(C(C)O)c[n+](Cc2ccccc2)c1 (stereo unspecified)
4. Cc1cc(N(CCC#N)CCC#N)ccc1/C(N=Nc1cccc(Cl)c1)=N/NC(=O)c1cc(Cl)ccc1O
5. NC(=O)NNC(=O)NC12CC3CC(CC(C3)C1)C2
6. Oc1ccc(C(c2ccc(O)cc2)c2ccc(Br)cn2)cc1

75.9 µM
22.2 µM
> 100 µM
42 µM
> 100 µM
14.5 µM

Give measured TGI for every item shown.
1. c1ccc2c(c1)Nc1ccncc1S2
2. CCCC1CCC(=C2C(=O)CCC2=O)O1 (stereo unspecified)
3. O=c1[nH]nc(Cc2ccccc2)n1C1CCCC1
4. COC(=O)CCCCC(=O)c1c(C)[nH]c(/C=C2\N=C(c3ccc[nH]3)C=C2OC)c1C
5. CCOC(=O)/C(C#N)=C(O)/C(=C\c1ccc(Br)cc1)NC(=O)c1ccccc1
6. CCOC(=O)/C=C/CCO[Si](C)(C)C(C)(C)C

1. > 100 µM
2. > 100 µM
3. > 100 µM
4. 2.32 µM
5. > 100 µM
6. > 100 µM

Dear colleague, could you send me TGI for each of the items below? Thanks.
1. O=[N+]([O-])/C(C(Cl)=C(Cl)Cl)=C(/Cl)SCc1ccccc1
2. O=C(CCCCCCN1CC(=O)N2[C@@H](c3ccc(Cl)c(Cl)c3)c3[nH]c4ccccc4c3C[C@H]2C1=O)NO

1: 9.06 µM; 2: 12.9 µM

* * *

# Tested on: A549 NSCLC
# assayName: NCI tumour cell line growth inhibition, 48 h; in the data active means GI50 below about 0.43 µM; inactive means the rest
Where a SMILES comes first, the peptide text is derived from it. The star is where a group is joined. Palmitoyl = CCCCCCCCCCCCCCCC(=O)*
API: response.call in 1 = active, -1 = inactive

Use these answered entries as a reference point.
• C[C@]12CC[C@@H]3c4cc(OC(F)F)c(OS(N)(=O)=O)cc4CC[C@H]3[C@@H]1CC[C@@H]2O = -1
• CCCCCCCCCCCCCCCC(=O)N1CCCC1C(=O)NCC(=O)NC(Cc1ccccc1)C(=O)NC(C)C(=O)NC(CO)C(=O)NC(Cc1ccc(O)cc1)C(=O)NC(CCCCN)C(=O)NC(CC(C)C)C(=O)NC(CCCN=C(N)N)C(=O)N1CCCC1C(=O)NCC(N)=O (stereo not drawn) (Palmitoyl-PGFASYKLRPG-NH2; configuration not given here) = -1
• COc1ncnc(NS(=O)(=O)c2ccc(N=C3C(=O)N(CN4CCN(c5c(F)cc6c(=O)c(C(=O)O)cn(C7CC7)c6c5OC)CC4C)c4ccc(Br)cc43)cc2)c1OC (stereo not drawn) = -1

What did this assay record as the result for `O=C(CCCCCCN1CC(=O)N2[C@@H](c3ccc(Cl)c(Cl)c3)c3[nH]c4ccccc4c3C[C@H]2C1=O)NO` ?
-1

Record request — test call for CC1(C)CC(=O)C2=C(C1)OC(N)=C(c1nc(-c3ccccc3)cs1)C2c1ccc(Br)cc1 (stereo not drawn)
-1

Check the results log: what was the call for COC1C(O)C(CO)OC(OC2C(O)COC(OC3C(C)OC(OC4C(O[C@H]5CC[C@@]6(C)C(CC=C7[C@H]6CCC68C(=O)O[C@@](C)(CCCC(C)C)[C@H]6[C@@H](OC(C)=O)C[C@@]78C)C5(C)C)OCC(OS(=O)(=O)O)C4O)C(OC4OCC(O)C(O)C4O)C3O)C2O)C1O (stereo partly drawn) ?
1

How did this test come out for `Cc1cc(N(CCCNc2ccnc3cc(Cl)ccc23)Cc2ccco2)nc(N2CCN(C)CC2)n1` ?
-1

Assay outcome for `CCN(CC)CCCCCCNc1cc(OC)cc2cccnc12` : what was it?
-1

* * *

# Test system: HL-60(TB) leukemia
# assayName: NCI tumour cell line growth inhibition, 48 h; in the data active = GI50 below about 0.43 µM; inactive = the rest
# output must be one of active, inactive

Some solved entries appear below for comparison.
• CCCCCCNC(=O)Oc1ccc(/C(=C(\C)c2ccc(Cl)cc2)c2ccc(OCCN3CCCCC3)cc2)cc1 = inactive
• COc1cc(/C=C/C(=O)c2cccc(-n3cc(-c4ccc(Cl)cc4)[nH]c3=O)c2)cc(OC)c1OC = inactive

Per the assay record, what outcome was assigned to `COc1ccc(-c2nc(/C=C3\SC(=NCc4ccccc4)NC3=O)c3ccccn23)cc1` ?
inactive

Tell me the assay call for `COc1cc2nc(-c3cc(F)ccc3O)nc(N[C@@H]3CNC[C@H]3C(C)(C)O)c2cc1OC` please.
inactive

Outcome? `Oc1cccc2ccc(N/N=C/c3cc(CN4CCOCC4)c(O)c4ncccc34)nc12`
active

Give the logged outcome of this assay for the following molecule: COc1ccc(NC(=O)C2CCC(CNS(=O)(=O)c3ccccc3)CC2)cc1OC (centres undefined)
inactive

Please let me know the test result on file for `c1ccc2c(c1)Nc1ccncc1S2` .
inactive

Test call for this molecule, please: `CC1=C(CC(=O)c2cccc([N+](=O)[O-])c2)C(=O)c2ccccc2C1=O`
inactive

I would be grateful if you could indicate the recorded call for `O=[N+]([O-])c1ccc(N2CCOCC2)c2c1no[n+]2[O-]` .
inactive

// param item: C#CCNC(=O)[C@H](CC)[C@H]1CC[C@H](C)[C@H]([C@@H](C)[C@H](O)[C@H](C)C(=O)[C@H](CC)C2O[C@]3(C=CC(=O)[C@]4(CC[C@@](C)([C@H]5CC[C@](O)(CC)[C@H](C)O5)O4)O3)[C@H](C)C[C@@H]2C)O1 (some centres undefined) ; yields the recorded call
inactive
